Where these numbers come from: ChEMBL document CHEMBL5034038

I'd appreciate it if you could supply pIC50 values for the items below.
Test: Inhibition of Influenza A virus (A/California/07/2009 (H1N1)) neuraminidase N1 H275Y mutant using MUNANA as substrate preincubated for 30 mins followed by substrate addition by fluorescence method
One number for each entry, as −log10 of the molar value.

Reference set (5 entries):
CC(=O)N[C@H]1[C@H]([C@H](OC(=O)NCCOCCOCCOCCOCCOCCOCc2cn(CCCCCCO[C@H]3CC[C@@]4(C)C(=CC[C@H]5[C@@H]6CC[C@H]([C@H](C)CCCC(C)C)[C@@]6(C)CC[C@@H]54)C3)nn2)[C@H](O)CO)OC(C(=O)O)=C[C@@H]1NC(=N)N | 7.66
CC(=O)N[C@H]1[C@H]([C@H](OC(=O)NCCOCCOCCOCc2cn(CCCCCCO[C@H]3CC[C@@]4(C)C(=CC[C@H]5[C@@H]6CC[C@H]([C@H](C)CCCC(C)C)[C@@]6(C)CC[C@@H]54)C3)nn2)[C@H](O)CO)OC(C(=O)O)=C[C@@H]1NC(=N)N | 6.90
CC(=O)N[C@H]1[C@H]([C@H](OC(=O)NCCOCCOCCOCCOCCOCCOCCOCCOCCOCCOCCOCCOCc2cn(CCCCCCO[C@H]3CC[C@@]4(C)C(=CC[C@H]5[C@@H]6CC[C@H]([C@H](C)CCCC(C)C)[C@@]6(C)CC[C@@H]54)C3)nn2)[C@H](O)CO)OC(C(=O)O)=C[C@@H]1NC(=N)N | 6.24
CCCCCCn1cc(COCCOCCOCCOCCOCCOCCNC(=O)O[C@@H]([C@@H]2OC(C(=O)O)=C[C@H](NC(=N)N)[C@H]2NC(C)=O)[C@H](O)CO)nn1 | 7.52
CC(=O)N[C@H]1[C@H]([C@H](O)[C@H](O)CO)OC(C(=O)O)=C[C@@H]1NC(=N)N [ZANAMIVIR] | 9.00

We next turn to a different molecule, shown below.
Which pIC50 is reported for this molecule? CCC(CC)O[C@@H]1C=C(C(=O)O)C[C@H](N)[C@H]1NC(C)=O [OSELTAMIVIR CARBOXYLATE] 6.03

* * *

I'd appreciate it if you could supply pEC50 values for the items below.
Tested on: Influenza A virus
Assay: Antiviral activity against Influenza A virus (A/California/07/2009 (H1NI)) harboring NA H275Y mutant infected in dog MDCK cells assessed as reduction in virus replication incubated for 72 hrs by CCK8 assay
Assay type: functional, organism-based, A/California/07/2009(H1N1)
One number for each entry, as −log10 of the molar value.

Reference set (2 entries):
CC(=O)N[C@H]1[C@H]([C@H](OC(=O)NCCOCCOCCOCCOCCOCCOCc2cn(CCCCCCO[C@H]3CC[C@@]4(C)C(=CC[C@H]5[C@@H]6CC[C@H]([C@H](C)CCCC(C)C)[C@@]6(C)CC[C@@H]54)C3)nn2)[C@H](O)CO)OC(C(=O)O)=C[C@@H]1NC(=N)N | 7.66
CCCCCCn1cc(COCCOCCOCCOCCOCCOCCNC(=O)O[C@@H]([C@@H]2OC(C(=O)O)=C[C@H](NC(=N)N)[C@H]2NC(C)=O)[C@H](O)CO)nn1 | 6.21

List reported pEC50 for each of these compounds:
1. CC(=O)N[C@H]1[C@H]([C@H](O)[C@H](O)CO)OC(C(=O)O)=C[C@@H]1NC(=N)N
2. CC(=O)N[C@H]1[C@H]([C@H](OC(=O)NCCOCCOCCOCCOCCOCCOCCOCCOCCOCCOCCOCCOCc2cn(CCCCCCO[C@H]3CC[C@@]4(C)C(=CC[C@H]5[C@@H]6CC[C@H]([C@H](C)CCCC(C)C)[C@@]6(C)CC[C@@H]54)C3)nn2)[C@H](O)CO)OC(C(=O)O)=C[C@@H]1NC(=N)N
3. CC(=O)N[C@H]1[C@H]([C@H](OC(=O)NCCOCCOCCOCc2cn(CCCCCCO[C@H]3CC[C@@]4(C)C(=CC[C@H]5[C@@H]6CC[C@H]([C@H](C)CCCC(C)C)[C@@]6(C)CC[C@@H]54)C3)nn2)[C@H](O)CO)OC(C(=O)O)=C[C@@H]1NC(=N)N
4. CCC(CC)O[C@@H]1C=C(C(=O)O)C[C@H](N)[C@H]1NC(C)=O [OSELTAMIVIR CARBOXYLATE]

1. 7.58
2. 5.59
3. 6.18
4. 5.58
